System: THRa homodimer (NR concentration 90 nM)
ASSAY REMARKS: PBM binding z-score (relative to random genomic background probes); higher = stronger binding; sequences stand for … in GC…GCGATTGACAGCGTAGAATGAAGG
PROPERTY: PBM binding z-score
Answer with a bare number; do not write a unit.

Solved cases (4 shown):
> print(dat)
                        item.sequence             property  observed
1  CCTACTGGGCCAAAGGTCCTTGATTCCAATGCTC  PBM binding z-score    -0.139
2  CCTCGGAGGACAACAGGATGTCAGAGCTGCCAGA  PBM binding z-score    -0.131
3  AGTCAAAGTTCATCTTGGTAACGTAAGATATGCT  PBM binding z-score    -0.478
4  TAGCCTAGGACATGCGGGCCAGTATAGTGTCGGC  PBM binding z-score    -0.342

Request: Query PBM binding z-score for `AGAATGAGGTTAAGATTAGGGAAACAGAATACAT`
Result: 0.72

Request: Query PBM binding z-score for `CGAACTAGGTCACCAGGACAGTGATGAGGTTGGA`
Result: 2.08

Request: Query PBM binding z-score for `ATATGTAGGTTAGGGTCATTGAGAAAGTAGGGAA`
Result: 3.44

Request: Query PBM binding z-score for `CCTACTGGGCCAACAAGGTCATTGATGCCGATAA`
Result: 2.41

Request: Query PBM binding z-score for `TAGCCTCGGTCATTCAGGGGCCAGTATAGAAAGC`
Result: -0.717

---

Test system: PPARg:RXRa IVT, anti-PPARg (NR concentration 270 nM, RXRa partner concentration 90 nM)
ASSAY REMARKS: PBM binding z-score (relative to random genomic background probes); higher = stronger binding; sequences stand for … in GC…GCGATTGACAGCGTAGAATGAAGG
Entries annotated with measured PBM binding z-score

> print(dat)
                        item.sequence                             tested.system             property  observed
1  TGGCCTAGGTCATGGGCCAGTATACCACGCGAAC  PPARg:RXRa IVT, anti-PPARg (NR concentration 270 nM, RXRa partner concentration 90 nM)  PBM binding z-score       2.6
2  CAAACTAGGTCAAAGGACAGTGAAAGGCGACGTA  PPARg:RXRa IVT, anti-PPARg (NR concentration 270 nM, RXRa partner concentration 90 nM)  PBM binding z-score       8.6
3  TCTAGTAGGTCACGGAGGTCACACACGACGGGTA  PPARg:RXRa IVT, anti-PPARg (NR concentration 270 nM, RXRa partner concentration 90 nM)  PBM binding z-score      8.61
4  TGAATGAAGTTAAAGATCAGGGAACGTGGCGTCG  PPARg:RXRa IVT, anti-PPARg (NR concentration 270 nM, RXRa partner concentration 90 nM)  PBM binding z-score   -0.0985
5  CCTACTGGGCCAAAAAGGTAATTGATGCCGATAA  PPARg:RXRa IVT, anti-PPARg (NR concentration 270 nM, RXRa partner concentration 90 nM)  PBM binding z-score      2.69
6  GATACAGGGTCAACTAGAGGCCAGAGTATGGAAA  PPARg:RXRa IVT, anti-PPARg (NR concentration 270 nM, RXRa partner concentration 90 nM)  PBM binding z-score      3.97

Request: Query PBM binding z-score for `ATATGTAGGTTCGGGTCATTCAGAAAGTAGGGAA`
Result: 4.01
